test system: SF-295 CNS; assay: NCI-60 one-dose screen, 48 h (100 = growth as untreated, 0 = no growth, -100 = all killed); conditions: 10 µM unless noted
This is part of a sample that, as a whole, favours compounds with a hit. Of some 83,000 tested, about 20% had one in any assay. The source made the active and inactive calls. How the source made its calls: active means growth percent below 10; inactive means the rest.
Measured growth, listed per entry for reference.

Take a look at these entries with their results.
| compound | growth |
| --- | --- |
| O=Nc1ccc(O)c2ccccc12 | 62.9% (inactive) |
| CC(C)(CNC1CCCCC1)OC(=O)c1ccccc1 | 94.1% (inactive) |

growth recorded for this compound, `OC(c1ccccc1)(c1ccccc1)C(F)(F)F` , is 107% (inactive)

growth recorded for this compound, `CCCC(CCC)Oc1ccc(CCCC2=C(O)c3ccccc3C(=O)C2=O)cc1` , is 28.2% (inactive)

growth recorded for this compound, `COc1ccc(/C(=C(\c2ccccc2)[N+](=O)[O-])c2ccc(OCCN3CCCC3)cc2)cc1` , is 31.9% (inactive)

growth recorded for this compound, `CC(C)(C)c1ccc([I+]c2ccc(C(C)(C)C)cc2)cc1` , is 23.7% (inactive)

growth recorded for this compound, COc1cc2cc3cc4cc(OC)c(OC)cc4c(C)[n+]3cc2cc1OC (tested in a mixture with another compound) , is 70.7% (inactive)

growth recorded for this compound, `O=C(N/N=C/c1ccccc1Cl)c1cccc2ccccc12` , is 99.7% (inactive)

growth recorded for this compound, CCOC(=O)C(C)C(C)(O)c1ccccc1 (stereo unspecified) , is 103% (inactive)

growth recorded for this compound, `c1cc[c]([Bi]([c]2ccccc2)[c]2ccccc2)cc1` , is 103% (inactive)

growth recorded for this compound, Nc1nc2c(c3ncncc13)C(c1cccc(C(F)(F)F)c1)Cc1ncncc1-2 (stereo unspecified) , is 11.9% (inactive)

###

test system: A549/ATCC NSCLC; assay: NCI-60 one-dose screen, 48 h; conditions: 10 µM unless noted
Compounds without any hit were thinned out: in the full panel of roughly 83,000, 20% have a hit. Calls of active or inactive are those of the source. Rule for the calls: active = growth percent below 10; inactive = the rest.
Outcome (select one): yes = active, no = inactive

Field: example entries. Status: answers known.
| compound | class |
| --- | --- |
| Cc1nnc(-c2cc3c(ccc4ccccc43)oc2=O)c2cn(-c3ccc(Cl)cc3)nc12 | no |
| O=C1N/C(=N\c2nnc(-c3ccc(O)cc3)s2)S/C1=C\c1ccccc1O | no |
| O=C(Nc1cccc(Cn2c(=O)[nH]c3ccc(Oc4ncccn4)cc3c2=O)c1)c1cccc(F)c1 | no |
| CCOC(=O)C1=C(c2ccccc2)NC(=O)NC1CN1C(=O)c2ccccc2C1=O (stereo not given) | no |
| COC(=O)C1CC(=O)N(C(=O)Nc2ccc(Cl)cc2Cl)C1 (stereo not given) | no |

# lookup: test call for `COc1ccc(/C=C(/C(=O)N2CCN(c3ccc(C)cc3)CC2)c2cc(OC)c(OC)c(OC)c2)cc1N` no

# lookup: test call for `CCOc1nc(-c2ccccc2)cc2c(O)c(C(=O)N/N=C/c3ccccc3O)[nH]c(=O)c12` no

# lookup: test call for `COc1ccc(-c2nnc(SCC(=O)Nc3ccc(C(=O)/C=C/c4cc(OC)c(OC)c(OC)c4)cc3)n2-c2ccccc2)cc1OC` yes

# lookup: test call for `O=C(CCl)c1ccc2c(c1)CCCC2` no

# lookup: test call for `CCn1cnc(C[C@H](NC(=O)[C@@H](NC(=O)Nc2cc(C(F)(F)F)cc(C(F)(F)F)c2)C(C)C)C(=O)OC)c1` yes
